All figures here come from paper PMC4467241.

# procedureSummary: Steady-state plasma pharmacokinetics of apremilast alone
# Format: in vivo, human
# runParameters: both, human, plasma, oral, 30 mg
assayEndpoint: AUC (ng·h/mL)

• CCOc1cc([C@@H](CS(C)(=O)=O)N2C(=O)c3cccc(NC(C)=O)c3C2=O)ccc1OC = 4110

====

# Format: in vivo, human
# runParameters: human, plasma, po, 12.5 mg, Cmax, MTX 12.5 mg oral alone (Day 1), plasma, N = 1
assayEndpoint: Cmax

* CN(Cc1cnc2nc(N)nc(N)c2n1)c1ccc(C(=O)N[C@@H](CCC(=O)O)C(=O)O)cc1 [MTX, methotrexate, reference compound] | 528 ng/mL
